test: VP16 transactivation reporter inhibitors, counter-screen for LRH-1 inverse agonist project, cell-based, luminescence, high throughput (AID 651615); settings: Gal4-VP16 luciferase reporter cells, at 3.6 µM, active compounds read high
Recorded inhibition by entry
Form entry: value (%) — number only.

>  <molecule>
COc1ccccc1NC(=O)CN1CCN(CC(=O)Nc2ccc3c(c2)OCO3)CC1

>  <inhibition (%)>
0.21

$$$$
>  <molecule>
COc1cc(Cn2c3ccc(NC(=O)CCc4ccc(O)cc4)cc3c(=O)n2C)ccc1F

>  <inhibition (%)>
71.1

$$$$
>  <molecule>
CC(=NNC(=S)N1CCN(c2ccccn2)CC1)c1nccs1

>  <inhibition (%)>
44.3

$$$$
>  <molecule>
Cc1nn(CC(=O)Nc2ccc3c(c2)OCCO3)c(C)c1[N+](=O)[O-]

>  <inhibition (%)>
10.4

$$$$
>  <molecule>
CC1CCCN(c2ncnc3c2cnn3-c2ccc(Cl)cc2)C1 (stereo unspecified)

>  <inhibition (%)>
66.5

$$$$

Ask: Any idea what inhibition was measured for `COc1ccc(-c2nn(C)c(=O)c3ccccc23)cc1NS(C)(=O)=O` ?
Result: -52.2

Ask: Any idea what inhibition was measured for `Cc1cc(-n2c(C)cc(C(=O)CSc3ncnc4ccccc34)c2C)no1` ?
Result: 36.9

Ask: Any idea what inhibition was measured for `CC(C)(C)c1ccc(C(=O)N2CCCCCC2=O)cc1` ?
Result: 56.4

Ask: Any idea what inhibition was measured for `COc1ccccc1NS(=O)(=O)c1cccc(C(=O)NC2CCN(Cc3ccccc3)CC2)c1` ?
Result: 48.3

Ask: Any idea what inhibition was measured for `CCN(CC)S(=O)(=O)c1cc(NC(=O)CNc2cccc(S(=O)(=O)N3CCCC3)c2)ccc1C` ?
Result: 49.1

Ask: Any idea what inhibition was measured for `C=CCn1c(SCC(=O)Nc2ccccc2C)nc(O)cc1=O` ?
Result: -13.2

* * *

test: StAR promoter reporter inhibitors, counter-screen for LRH-1 inverse agonist project, cell-based, luminescence, high throughput (AID 651611); details: StAR promoter luciferase reporter counterscreen, at 3.6 µM, active compounds read high
Recorded inhibition by entry
Form entry: value (%) — number only.

Recorded results for 5 compounds are shown here.
>  <compound>
Cc1ccc(O)c(N=Nc2nccs2)c1

>  <scale_unit>
%

>  <inhibition>
79.3

$$$$
>  <compound>
CC(=O)Nc1cccc(C(=O)OCC(=O)N2CCN(C(=O)COC(=O)c3cccc(NC(C)=O)c3)CC2)c1

>  <scale_unit>
%

>  <inhibition>
21.9

$$$$
>  <compound>
O=C(NCC1CCCO1)c1ccc(NC(=O)c2cccc([N+](=O)[O-])c2)cc1 (stereo not given)

>  <scale_unit>
%

>  <inhibition>
3.83

$$$$
>  <compound>
Cc1ccc(-n2c(-c3ccccc3)c[n+]3c2CCc2ccccc2-3)c(C)c1

>  <scale_unit>
%

>  <inhibition>
57.4

$$$$
>  <compound>
COC1C=CC=C(C)C(=O)NC2=CC(=O)C(N)=C(CC(C)CC(OC)C(O)C(C)C=C(C)C1OC(N)=O)C2=O (stereo not given)

>  <scale_unit>
%

>  <inhibition>
73.2

$$$$

Ask: Any idea what inhibition was measured for `COC(=O)c1ccc(N2CCCCC2)c(NC(=O)c2ccco2)c1` ?
Result: 9.72

Ask: Any idea what inhibition was measured for `Oc1cccc2cc(Nc3ccccc3)cnc12` ?
Result: 65.5

Ask: Any idea what inhibition was measured for `O=C(NCCOc1cccnc1)c1ccc(OC2CCN(Cc3ccccn3)CC2)cc1` ?
Result: 90.8

Ask: Any idea what inhibition was measured for `CCOc1ccc(CCNC(=O)COC(=O)c2cc([N+](=O)[O-])ccc2N2CCOCC2)cc1OCC` ?
Result: 9.91

Ask: Any idea what inhibition was measured for `CCN(CC)c1ccc(/C=C/c2ccc3ccc(OC)cc3[n+]2CC)cc1` ?
Result: 67.8

* * *

tested on: transactivating tegument protein VP16 (Human herpesvirus 1), Gal4-VP16 luciferase reporter; assay: VP16 transactivation inhibitors, counter-screen for SRC3 inhibitor project, cell-based, luminescence, high throughput (AID 588794); details: mammalian cells, VP16-driven luciferase reporter luminescence; at 3.6 µM
The source made the active and inactive calls. Cut-off read from the data, not from the text of the source: active = inhibition above about 30%; inactive = the rest.
Pick one: TRUE = active, FALSE = inactive

Example entries begin here.
>  <structure>
O=c1cnnc(N/N=C/c2ccccn2)[nH]1

>  <label_value>
TRUE

$$$$
>  <structure>
COc1ccccc1N1CCN(C(=O)CSc2nnc3n2C(C)(C)Cc2ccccc2-3)CC1

>  <label_value>
FALSE

$$$$
>  <structure>
Cc1cc(C2=NNC(=NC3CC3)SC2)c(C)n1-c1ccccc1F

>  <label_value>
TRUE

$$$$
>  <structure>
CCN(CC)c1ccc(/C=C/c2ccc3ccc(OC)cc3[n+]2CC)cc1

>  <label_value>
TRUE

$$$$

Shift focus to the following entry.
Ask: Called result for `CCCCCCSc1ccc([C@H]2N[C@@](CC(C)C)(C(=O)OC)[C@H]3C(=O)N(C)C(=O)[C@@H]23)cc1OC`
Result: FALSE

* * *

test system: transactivating tegument protein VP16 (Human herpesvirus 1), Gal4-VP16 luciferase reporter; assay: VP16 transactivation inhibitors, counter-screen for SRC3 inhibitor project, cell-based, luminescence, high throughput (AID 588794); settings: mammalian cells, VP16-driven luciferase reporter luminescence; at 3.6 µM; active compounds read high
property_name: inhibition (%)
Form entry: value (%) — number only.

Recorded results for 5 molecules are shown here.
>  <structure>
O=C1C=CC(=O)N1CCNc1ncc(C(F)(F)F)cc1Cl

>  <inhibition [%]>
-14.1

$$$$
>  <structure>
COc1ccccc1N(C(=O)CCl)c1cn(C(C)=O)c2ccccc12

>  <inhibition [%]>
27

$$$$
>  <structure>
Cc1ccc(C#N)c(SCc2nnc(-c3ccc(Cl)cc3)o2)n1

>  <inhibition [%]>
54.9

$$$$
>  <structure>
C[n+]1c2n(c3ccccc31)N=C(c1ccc(-c3ccccc3)cc1)CS2

>  <inhibition [%]>
52.8

$$$$
>  <structure>
O=C(Nc1ccc([N+](=O)[O-])cc1)Nc1ccc(OC(F)F)c(Cl)c1

>  <inhibition [%]>
32.5

$$$$

Could you now look at the following molecule, please?
Ask: Any idea what inhibition was measured for `Cc1ccc(/C=C2\SC(=S)N(CCCC(=O)NC3CCCC3)C2=O)cc1` ?
Result: 14.5

* * *

molecular target: Steroidogenic factor 1 (Homo sapiens) (UniProt Q13285); assay: SF1 (NR5A1) inverse agonists, counter-screen for LRH-1 inverse agonist project, cell-based, luminescence, high throughput (AID 651614); settings: cell-based SF1 luciferase reporter, at 3.6 µM, active compounds read high;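 note: cells cotransfected with StAR promoter reporter and SF1 expression vector; 0% = vehicle on cells with receptor and 100% = vehicle on cells lacking receptor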
Sequence (Q13285 whole entry, looked up): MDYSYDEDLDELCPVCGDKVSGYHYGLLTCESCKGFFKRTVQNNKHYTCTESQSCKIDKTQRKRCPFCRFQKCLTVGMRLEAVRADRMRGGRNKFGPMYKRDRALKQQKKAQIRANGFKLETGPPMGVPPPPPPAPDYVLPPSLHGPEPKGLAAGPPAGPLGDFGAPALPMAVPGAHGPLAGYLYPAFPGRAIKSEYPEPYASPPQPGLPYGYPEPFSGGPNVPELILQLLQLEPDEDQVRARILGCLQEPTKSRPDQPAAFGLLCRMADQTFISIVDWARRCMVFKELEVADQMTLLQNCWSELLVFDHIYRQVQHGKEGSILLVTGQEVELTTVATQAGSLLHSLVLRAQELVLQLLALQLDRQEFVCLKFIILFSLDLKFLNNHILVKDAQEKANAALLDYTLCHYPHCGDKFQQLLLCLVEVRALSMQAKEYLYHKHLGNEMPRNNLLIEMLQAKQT
Recorded inhibition by entry
Form entry: value (%) — number only.

Ask: Any idea what inhibition was measured for `Cc1ccc(SCC(=O)Nc2ccc(N3CCOCC3)cc2)cc1C` ?
Result: 47.2

* * *

target: Nuclear receptor coactivator 3 (Homo sapiens); assay: SRC3 coactivator transcriptional activity inhibitors, confirmation, cell-based, luminescence, quadruplicate (AID 588792); conditions: HEK293 GAL4-SRC3 luciferase reporter, at 3.6 µM, active compounds read high;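 note: 0% = DMSO treated cells and 100% = gossypol at 36 µM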
Class y: inhibition at least 20%. Class n: inhibition below 20%.

Example entries begin here.
>  <compound>
COc1cc(/C=C/C(=O)Nc2ccc(OC)c(S(=O)(=O)N3CCOCC3)c2)ccc1OCC#N

>  <label_value>
n

$$$$
>  <compound>
CC(C)c1nc(Cl)c(C#N)c2c1CCCC2

>  <label_value>
y

$$$$
>  <compound>
CCOC(=O)c1c(-c2ccccc2)oc2ccc(O)c(CN3CCOCC3)c12

>  <label_value>
n

$$$$

Shift focus to the following entry.
Ask: Please check the record `CC(C)c1nc(NCCO)c(C#N)c2c1CCCC2` and state if its inhibition is at or above 20%.
Result: y

* * *

assay: VP16 transactivation reporter inhibitors, counter-screen for LRH-1 inverse agonist project, cell-based, luminescence, high throughput (AID 651615); conditions: Gal4-VP16 luciferase reporter cells, at 3.6 µM, active compounds read high
Class 1: inhibition at least 20%. Class 0: inhibition below 20%.

Example entries begin here.
>  <compound>
COc1cccc(/C=N/NC(=O)c2[nH]c(C)c(C(=O)N/N=C/c3cccc(OC)c3O)c2C)c1O

>  <label_value>
1

$$$$
>  <compound>
CCN1/C(=C/c2sc(-c3ccccc3C)c[n+]2C)Sc2ccccc21

>  <label_value>
1

$$$$
>  <compound>
CN1C=C/C(=C\c2cc[n+](C)c3ccccc23)c2ccccc21

>  <label_value>
1

$$$$
>  <compound>
CCN(CC)c1ccc(/C=C/c2cccc[n+]2C)c(OC)c1

>  <label_value>
1

$$$$
>  <compound>
Cc1ccccc1NC(=O)c1ccc([N+](=O)[O-])o1

>  <label_value>
0

$$$$
>  <compound>
CN(Cc1cnc2nc(N)nc(N)c2n1)c1ccc(C(=O)NC(CCC(=O)O)C(=O)O)cc1C(F)(F)F (stereo not given)

>  <label_value>
1

$$$$

Ask: Please check the record O=C(NCc1cccc(C(F)(F)F)c1)c1cc(-c2ccccc2)nn1CC1CC(c2cccnc2)=NO1 (stereo not given) and state if its inhibition is at or above 20%.
Result: 0

Ask: Please check the record `CCN1CCN(/C=N/c2nc3c(s2)CCCC3)CC1` and state if its inhibition is at or above 20%.
Result: 0

Ask: Please check the record `COc1ccc(CNC(=O)c2cccc3c(-c4cccc(C(N)=O)c4)coc23)cc1OC` and state if its inhibition is at or above 20%.
Result: 1

Ask: Please check the record `COc1cc(C(=O)NN=Cc2ccc(N(C)C)cc2)cc(OC)c1OC` and state if its inhibition is at or above 20%.
Result: 1
